# assayText: NCI Yeast Anticancer Drug Screen. Data for the rad50 strain (AID 155);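 further: 0% = growth of vehicle-only cultures of the same strain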
# assayContext: S. cerevisiae rad50 strain growth inhibition; at 50.0 µM (retest, dose inferred, filed as 5.0); hits give high values
# Protocol: Growth inhibition of yeast strains with defined genetic alterations is measured as a screen for potential anti-cancer activity. Selected strains with alterations in DNA damage repair or cell cycle control were exposed to compounds and growth inhibition was measured relative to vehicle treated controls. The strain used in this assay is rad50
This is part of a sample that, as a whole, favours compounds with a hit. Of some 79,000 tested, about 15% had one in any assay.
Give growth inhibition for every item shown.
Answers are plain numbers, in %.

Use the examples below as a reference point.
CN1C(=O)CC[C@@]2(C)C1=CC[C@H]1[C@@H]3CC[C@H](O)[C@@]3(C)CC[C@@H]12: 64
C[N+](CCCl)(CCCl)Cc1cccc2cccc([N+](=O)[O-])c12: 85
CSC(=Nc1ccccc1)N(c1ccccc1)c1nc(=[N+](C)C)ss1: 99
COC(=O)C1=C(C(=O)OC)SC2(S1)C(C(=O)OC)=C(C(=O)OC)Sc1c2ssc1=O: 95

We now examine a further molecule.
// field: growth inhibition; key: ClCCN(CCCl)c1ccc(CN2CCCN(Cc3ccc(N(CCCl)CCCl)cc3Cl)C2c2ccncc2)c(Cl)c1 ; value = 91

---

# assayText: NCI Yeast Anticancer Drug Screen. Data for the rad18 strain (AID 177)
# assayContext: S. cerevisiae rad18 mutant growth inhibition; at 3.7 µM; hits give high values
The panel holds about 79,000 compounds, 15% with a hit somewhere; the sample as a whole holds those more often.
measurementType: growth inhibition (%)
Give bare numbers, in %.

Use the examples below as a reference point.
C[C@]12CC[C@H](O)CC1=CC[C@@H]1[C@@H]2CC[C@]2(C)C(=O)CC[C@@H]12: -24
CC1=C(O)C(=O)C=C2C1=CC=C1[C@@]2(C)CCC2(C)[C@@H]3C[C@@H](C)C(=O)C[C@]3(C)CC[C@]12C (stereo not given in full): 28
Br[Se]c1ccccn1: 65
OCC(O)C(O)CO (stereo not given) (tested in a mixture with another compound): -3

We now examine a further compound.
// field: growth inhibition; key: COc1cccc2c1C(=O)c1c(O)c3c(c(O)c1C2=O)C[C@@](O)(/C(C)=N\O)C[C@@H]3OC1CC(N)C(O)C(C)O1 (stereo not given in full) ; value = 10

---

Give growth inhibition for every item shown.
# assayText: NCI Yeast Anticancer Drug Screen. Data for the rad50 strain (AID 155);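 further: 0% = growth of vehicle-only cultures of the same strain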
# assayContext: S. cerevisiae rad50 strain growth inhibition; at 50.0 µM (retest, dose inferred, filed as 5.0); hits give high values
# Procedure: Growth inhibition of yeast strains with defined genetic alterations is measured as a screen for potential anti-cancer activity. Selected strains with alterations in DNA damage repair or cell cycle control were exposed to compounds and growth inhibition was measured relative to vehicle treated controls. The strain used in this assay is rad50
The panel holds about 79,000 compounds, 15% with a hit somewhere; the sample as a whole holds those more often.
One number for each entry, in %.

Ic1cccc2c1[se]c1ccccc12: 22
O=C(O)CP(=O)(c1ccccc1)c1ccccc1.O=C(O)CP(=O)(c1ccccc1)c1ccccc1.[Cd]: 88
COc1ccc(CC2C(=O)NC(C)C(=O)N(C)C3C(=O)N(C)C(Cc4ccc(O)c(c4)Oc4ccc(cc4)C3O)C(=O)NC(C)C(=O)NC(C)C(=O)N2C)cc1 (stereo not given): 80
CCC[As](CCC)SC1CCC2(C)C(=CCC3C4CCC(=O)C4(C)CCC32)C1 (stereo not given): 98
Nc1ccc(Cc2ccc(N)c(Cl)c2)cc1Cl: 90

Please look at the items below and tell me growth inhibition for each one, in order.
1. O=[N+]([O-])c1cc([As](Br)c2ccc(O)c([N+](=O)[O-])c2)ccc1O
2. Nc1ccc(N=Nc2ccccc2)cc1
3. CC(=O)[O][Hg][c]1ccccc1N
4. Cc1cccc(C)c1NC(=O)/C(CC(=O)CC(c1ccccc1)c1c(O)c2ccccc2oc1=O)=N/O (stereo not given)
5. O=C(O)C1C2c3cccc4cccc(c34)C12 (stereo not given)

## Output
99
76
60
60
88

---

# assayText: NCI Yeast Anticancer Drug Screen. Data for the rad50 strain (AID 155);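 further: 0% = growth of vehicle-only cultures of the same strain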
# assayContext: S. cerevisiae rad50 strain growth inhibition; at 3.7 µM
About 79,000 compounds went through this panel and 15% of them were active in at least one assay; those are over-represented in the sample as a whole. The source made the active and inactive calls. Cut-off read from the data, not from the text of the source: active = growth inhibition above about 70%; inactive = the rest.
Lab note: assign the record to one of true (1) for active, false (0) for inactive

O=C1OC2C(O1)C1(Cl)C(Cl)=C(Cl)C2(Cl)C1(Cl)Cl (stereo unspecified): false (0)

// next entry
## Input Tell me the assay call for Nc1nnc(N)n1-n1c(N)nnc1N please.
## Output false (0)

---

# assayText: NCI Yeast Anticancer Drug Screen. Data for the sgs1 mgt1 strain (AID 161);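 further: 0% = growth of cultures given vehicle only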
# assayContext: S. cerevisiae sgs1 mgt1 strain, at 50.0 µM (retest, dose inferred, filed as 5.0)
The panel holds about 79,000 compounds, 15% with a hit somewhere; the sample as a whole holds those more often. The source made the active and inactive calls. Rule as the data show it: active = growth inhibition above about 70%; inactive = the rest.
Lab note: assign the record to one of 1 (yes) = active, 0 (no) = inactive

O=S(=O)(O)c1ccc(Cl)cc1.[Cd]: 0 (no)

## Input Tell me the assay call for CC(C)(C)C1=CC(=C/C=C/c2cc(C(C)(C)C)[o+]c(C(C)(C)C)c2)C=C(C(C)(C)C)O1 please.
## Output 1 (yes)

## Input Tell me the assay call for C=CO/C(C)=C(\[Se]c1ccccc1)C(C)=O please.
## Output 1 (yes)

## Input Tell me the assay call for CN(C)C(=O)Oc1c(Cl)cc(Cl)c(Cl)c1Cl please.
## Output 0 (no)

## Input Tell me the assay call for ClCCCCCl please.
## Output 0 (no)

## Input Tell me the assay call for CC1(O)CC([CH2][Hg][I])OC([CH2][Hg][I])C1 (stereo unspecified) please.
## Output 1 (yes)

---

# assayText: NCI Yeast Anticancer Drug Screen. Data for the mlh1 rad18 strain (AID 175)
# assayContext: S. cerevisiae mlh1 rad18 strain growth inhibition; at 50.0 µM
# Procedure: Growth inhibition of yeast strains with defined genetic alterations is measured as a screen for potential anti-cancer activity. Selected strains with alterations in DNA damage repair or cell cycle control were exposed to compounds and growth inhibition was measured relative to vehicle treated controls. The strain used in this assay is mlh1 rad18
Compounds without any hit were thinned out: in the full panel of roughly 79,000, 15% have a hit. The source made the active and inactive calls. Rule as the data show it: active = growth inhibition above about 70%; inactive = the rest. *1 amine or outer side, *2 acyl side, *3 side chain or, on linkers, in order; H or OH if unused. Where a SMILES comes first, the peptide text is derived from it. [ ]: non-standard residue; d: D form. X2 = CC[C@H](C)[C@H](OC(=O)[C@@H](C)[C@@H](CC)N[*:1])C(=O)[*:2]; X3 = C[C@H](N[*:1])C(=O)C(C)(C)C(=O)[*:2]; NMeY = CN[C@@H](Cc1ccc(O)cc1)C(=O)O; NMeL = CN[C@@H](CC(C)C)C(=O)O; NMeV = CN[C@H](C(=O)O)C(C)C
Lab note: assign the record to one of active, inactive

Use these answered entries as a reference point.
CC(=O)OC1CCC2(C)C3=C(CCC2C1(C)C)C1(C)CCC(C(C)CCC2NC2(C)C)C1(C)CC3 (stereo not drawn): inactive
CCCNC(=O)Nc1ccc2c(c1)Cc1cc(N(CCCl)CCCl)ccc1-2: inactive
CCCCC1C(=O)NC(=S)N(c2ccccc2)C1=O (stereo not drawn): inactive
c1ccc(NC2=NCCN2)nc1: inactive
C1CC[N-]CC1.C1CC[N-]CC1.N#CO.[Ag]: active
C/C(=N\O)C(CN(C)C)C(c1ccccc1)c1c(O)c2ccccc2oc1=O (stereo not drawn): active
Cc1ccc2ccccc2c1NC1=NCCO1: inactive
Clc1c(Cl)c(Cl)c([S][Pb]([c]2ccccc2)([c]2ccccc2)[c]2ccccc2)c(Cl)c1Cl: active
CCOC(=O)C(Cc1ccc(O)cc1)NCc1ccc(N(CCCl)CCCl)cc1 (stereo not drawn): active
CC[C@H](C)[C@@H]1OC(=O)[C@@H](C)[C@@H](CC)NC(=O)[C@H](C)NC(=O)C(C)(C)C(=O)[C@H](C)NC(=O)[C@H](Cc2ccc(OC)cc2)N(C)C(=O)[C@H](C(C)C)N(C)C(=O)CNC(=O)[C@H](CC(C)C)N(C)C(=O)CNC1=O (cyclo(A[X2]G[NMeL]G[NMeV][NMeY](Me)[X3])): active

## Input Tell me the assay call for O=C1CN2C(Cl)(Cl)C2(c2ccccc2)c2cc(Cl)ccc2N1CC1CC1 (stereo not drawn) please.
## Output active

## Input Tell me the assay call for O=P1(Oc2ccccc2)C(c2ccccc2)C(c2ccccc2)=NN1c1ccccc1 (stereo not drawn) please.
## Output active

---

# assayText: NCI Yeast Anticancer Drug Screen. Data for the mec2-1 strain (AID 157)
# assayContext: S. cerevisiae mec2-1 strain, at 50.0 µM, hits give high values
Compounds without any hit were thinned out: in the full panel of roughly 79,000, 15% have a hit. Active and inactive are the calls of the source. Rule as the data show it: active = growth inhibition above about 70%; inactive = the rest.
measurementType: growth inhibition

ClCCN(CCCl)CCN1c2ccccc2Sc2ccc(Cl)cc21: 96.2% (active)
CN(C)CCN(C)P12(Oc3ccccc3O1)Oc1c(Cl)c(Cl)c(Cl)c(Cl)c1O2: 99.2% (active)
[C-]#[O+].[C-]#[O+].[Ir].[O-]c1ccc2ccccc2c1N=Nc1ccccc1: 69.5% (inactive)
Nc1c(Br)cc(Br)c2c1C(=O)c1ccccc1C2=O: -9.45% (inactive)

We now examine a further compound.
// field: growth inhibition; key: C[CH2][Sn]([CH2]C)([O]S(C)(=O)=O)[O]S(C)(=O)=O ; value = 85.3% (active)
